- Procedure text: Plasma levels of 9-deoxo-16,16-dimethyl-9-methylene-PGE2 by radioimmunoassay after insertion of a suppository
- Type: in vivo, Rhesus monkeys (Macaca mulatta)
- Recorded conditions: rhesus monkey, plasma, 30 mg, plasma; Monkey #9 (pregnant animal with uterine recording); 24 Hours; 30 mg Free Acid in H15 Plus 2% CSD Suppositories; read-out: Drug Levels
Endpoint label: concentration at 24 h (ng/mL)
The response must be a number in ng/mL with no trailing unit.

Req: May I ask what concentration at 24 h has been recorded for C=C1C[C@@H](O)[C@H](/C=C/[C@@H](O)C(C)(C)CCCC)[C@H]1C/C=C\CCCC(=O)O [Free Acid, 9-deoxo-16,16-dimethyl-9-methylene-PGE2] ?
Resp: 21

Entry source: patent EP0097439A2
